# Method Notes: small-molecule microarray binders of probe aEGFR, primary screen, biochemical, biotinylated probe, 635/667 nm fluorescence (AID 1097);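 also: probe is a biotinylated anti-EGFR antibody binding compounds printed on slides; score combines fluorescence near 667 nm and signal to noise of each spot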
# Conditions Used: higher = more signal
Reported composite z-score values follow for various molecules

| Molecule | composite z-score |
| --- | --- |
| O=c1cccc(-c2ccc(C(F)(F)F)cc2)o1 | -0.22 |
| COc1ccc([Si](C)(C)[C@@H]2[C@@H](CCO)O[C@]3(C(=O)N(Cc4cccc(N5C(=O)c6cccc7cccc5c67)c4)c4ccccc43)[C@H]2C)cc1 | -0.221 |
| COc1ccccc1CN1C(=O)c2ccccc2[C@@H](C(=O)NC(C)C)[C@@H]1c1ccc(CO)cc1 | 0.14 |
| C=CCC(OC(C)=O)[C@@H]1[C@@H](N(Cc2ccc(-c3ccccc3)cc2)C(=O)c2cccc3ccccc23)c2cc(OCCCO)ccc2N1C(=O)Cc1ccc2ccccc2c1 (stereo partly drawn) | -0.123 |
| CN(C)CCCNC(=O)[C@@]1(c2ccc([N+](=O)[O-])cc2)CC(=O)N(CC23CC4CC(CC(C4)C2)C3)[C@@H]1c1ccc(CO)cc1 | 0.0529 |
| COCCCNC(=O)[C@]1(Cc2ccccc2CN=[N+]=[N-])N=C(c2ccc(OCCCO)cc2)O[C@@H]1c1ccccc1 | 0.0316 |
| COc1ccc(C(O)C2C=CC3C(=O)N(c4ccccc4)C(=O)C3N2Nc2ccccc2)cc1OCc1ccccc1 (stereo not drawn) | 0.0386 |
| C=CC[C@]1(C(=O)N(C)C)N=C(c2ccc(OCCCO)cc2)O[C@H]1c1ccccc1N=[N+]=[N-] | 0.0651 |

Attribution: PubChem BioAssay
